Where do the numbers come from? From patent US20150336943A1.

System: adrenergic receptor alpha2B (Homo sapiens)
Construct: expressed in transfected cells; host or cells: recombinant human cells (so in the source)
Sequence (P18089 whole entry): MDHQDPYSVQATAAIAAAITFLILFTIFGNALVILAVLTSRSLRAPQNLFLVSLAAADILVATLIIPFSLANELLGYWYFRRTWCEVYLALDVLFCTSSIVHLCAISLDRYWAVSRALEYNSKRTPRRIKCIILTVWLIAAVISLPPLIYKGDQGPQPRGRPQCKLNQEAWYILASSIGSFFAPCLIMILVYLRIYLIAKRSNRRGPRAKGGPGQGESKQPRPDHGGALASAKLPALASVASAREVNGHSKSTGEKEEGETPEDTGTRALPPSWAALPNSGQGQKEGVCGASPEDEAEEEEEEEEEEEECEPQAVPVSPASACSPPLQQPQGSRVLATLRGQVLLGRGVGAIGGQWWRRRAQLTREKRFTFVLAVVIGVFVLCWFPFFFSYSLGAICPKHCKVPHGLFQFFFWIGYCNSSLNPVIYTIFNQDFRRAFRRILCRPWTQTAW
Assay Info: Inhibition constants (Ki) for adrenergic receptor alpha2B in recombinant cells
Type: binding
Experimental Parameters: read-out: pKi α2B (converted)
Assay Readout: Ki (nM)
Write it as a number; the unit nM goes unstated.

Observe how each entry below is paired with its result.
{"columns": ["Smiles Text", "Meas Value"],
 "data": [
  ["O=C1OC[C@@H](CO)N1CCC1CCN(C[C@H]2COc3c(F)cc(Cl)cc3O2)CC1", 10.5],
  ["N#Cc1ccc2c(c1)O[C@@H](CN1CCC(CCN3CCOCC3=O)CC1)CO2", 81.3],
  ["O=C1COCCN1CCC1CCN(C[C@H]2COc3c(F)cc(F)cc3O2)CC1", 1.55]
]}

Let's switch to this molecule now.
Which Ki value is on record for O=C1OC[C@@H](COc2ccccc2)N1CCC1CCN(C[C@H]2COc3ccc(Br)cc3O2)CC1 ?
186

----------
System: MK-801-induced hyperactivity
Assay Info: MK-801-induced hyperactivity test in mice
Format: in vivo
Experimental Parameters: Mus musculus
Recorded ED50 by entry

Observe how each entry below is paired with its result.
{"columns": ["Molecule", "Meas Value"],
 "data": [
  ["O=C1COCCN1CCC1CCN(C[C@H]2COc3c(F)cc(Cl)cc3O2)CC1 [Example 94]", "0.19 mg/kg"],
  ["Cc1ccc2c(c1)O[C@@H](CN1CCC(CCN3C(=O)OC[C@@H]3Cc3ccccc3)CC1)CO2 [Example 31]", "2.1 mg/kg"],
  ["O=C1OC[C@H](Cc2ccccc2)N1CCC1CCN(C[C@H]2COc3ccc(OC(F)(F)F)cc3O2)CC1 [Example 32]", "2.4 mg/kg"]
]}

Let's switch to this molecule now.
Which ED50 value is on record for O=C1OCCN1CCC1CCN(C[C@H]2COc3ccc(F)cc3O2)CC1 [Example 7] ?
0.15 mg/kg

----------
Recorded Ki by entry
System: dopaminergic receptor D2 (Homo sapiens, UniProt P14416)
Construct: expressed in transfected cells; host or cells: recombinant human cells (so in the source)
Sequence (P14416 whole entry): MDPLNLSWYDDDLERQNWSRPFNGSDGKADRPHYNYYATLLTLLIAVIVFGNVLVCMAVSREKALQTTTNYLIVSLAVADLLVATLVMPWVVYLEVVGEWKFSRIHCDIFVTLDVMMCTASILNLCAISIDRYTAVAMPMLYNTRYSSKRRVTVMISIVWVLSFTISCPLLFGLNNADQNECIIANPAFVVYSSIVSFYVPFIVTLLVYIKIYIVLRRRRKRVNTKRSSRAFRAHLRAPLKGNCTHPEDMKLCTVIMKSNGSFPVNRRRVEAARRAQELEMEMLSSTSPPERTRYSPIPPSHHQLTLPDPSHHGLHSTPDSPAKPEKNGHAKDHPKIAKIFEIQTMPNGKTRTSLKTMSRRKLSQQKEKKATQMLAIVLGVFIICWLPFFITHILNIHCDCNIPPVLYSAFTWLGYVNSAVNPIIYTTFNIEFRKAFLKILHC
Assay Info: Inhibition constants (Ki) for dopaminergic receptor D2 in recombinant cells
Format: binding
Experimental Parameters: read-out: pKi D2 (converted)
Write it as a number; the unit nM goes unstated.

Observe how each entry below is paired with its result.
{"columns": ["Smiles Text", "Assay Readout", "Meas Value"],
 "data": [
  ["O=C1OC[C@H](Cc2ccccc2)N1CCC1CCN(C[C@H]2COc3cc(O)ccc3O2)CC1", "Ki", 2.14],
  ["O=C1OCCN1CCC1CCN(C[C@H]2COc3ccc(F)cc3O2)CC1", "Ki", 14.5],
  ["O=C1OCCN1CCC1CCN(C[C@H]2COc3c(Cl)cc(F)cc3O2)CC1", "Ki", 0.955],
  ["O=C1COCCN1CCC1CCN(C[C@H]2COc3c(F)cc(F)cc3O2)CC1", "Ki", 15.1]
]}

Let's switch to this compound now.
Which Ki value is on record for O=C1OC[C@@H](CO)N1CCC1CCN(C[C@H]2COc3c(Cl)cc(F)cc3O2)CC1 ?
3.09

----------
System: adrenergic receptor alpha2C (Homo sapiens, UniProt P18825)
Construct: expressed in transfected cells; host or cells: recombinant human cells (so in the source)
Sequence (P18825 1-462): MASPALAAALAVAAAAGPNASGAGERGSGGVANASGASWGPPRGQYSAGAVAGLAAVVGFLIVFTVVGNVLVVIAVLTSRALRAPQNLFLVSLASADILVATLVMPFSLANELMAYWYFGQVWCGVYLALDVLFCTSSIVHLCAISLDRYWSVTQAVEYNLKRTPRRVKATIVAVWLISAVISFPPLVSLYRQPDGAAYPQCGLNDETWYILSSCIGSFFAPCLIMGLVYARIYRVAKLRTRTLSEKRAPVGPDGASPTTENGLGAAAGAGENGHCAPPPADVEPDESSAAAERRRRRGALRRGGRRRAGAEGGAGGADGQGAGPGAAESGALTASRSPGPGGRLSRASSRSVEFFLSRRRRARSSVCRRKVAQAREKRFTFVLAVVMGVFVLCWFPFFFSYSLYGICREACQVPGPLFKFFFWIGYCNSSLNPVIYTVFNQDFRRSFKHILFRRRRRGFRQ
Assay Info: Inhibition constants (Ki) for adrenergic receptor alpha2C in recombinant cells
Type: binding
Experimental Parameters: read-out: pKi α2C (converted)
Text: Compounds of formula 1 have been evaluated in vitro as ligands for dopaminergic and noradrenergic receptors and modulators of the activity of these receptors according to the invention in recombinant human cells expressing the receptors. […]
Assay Readout: Ki

Observe how each entry below is paired with its result.
{"columns": ["Smiles Text", "Assay Readout", "Meas Value"],
 "data": [
  ["O=C1OC[C@@H](CO)N1CCC1CCN(C[C@H]2COc3c(F)cc(Cl)cc3O2)CC1", "Ki", "1.62 nM"],
  ["N#Cc1ccc2c(c1)O[C@@H](CN1CCC(CCN3CCOCC3=O)CC1)CO2", "Ki", "6.76 nM"]
]}

Which Ki value is on record for Cc1ccc2c(c1)O[C@@H](CN1CCC(CCN3C(=O)OC[C@@H]3Cc3ccccc3)CC1)CO2 ?
1 nM

Which Ki value is on record for O=C1OC[C@@H](COc2ccccc2)N1CCC1CCN(C[C@H]2COc3ccc(Br)cc3O2)CC1 ?
8.71 nM
